Target: Acetolactate synthase, chloroplastic (Arabidopsis thaliana, UniProt P17597)
Sequence (P17597 whole entry): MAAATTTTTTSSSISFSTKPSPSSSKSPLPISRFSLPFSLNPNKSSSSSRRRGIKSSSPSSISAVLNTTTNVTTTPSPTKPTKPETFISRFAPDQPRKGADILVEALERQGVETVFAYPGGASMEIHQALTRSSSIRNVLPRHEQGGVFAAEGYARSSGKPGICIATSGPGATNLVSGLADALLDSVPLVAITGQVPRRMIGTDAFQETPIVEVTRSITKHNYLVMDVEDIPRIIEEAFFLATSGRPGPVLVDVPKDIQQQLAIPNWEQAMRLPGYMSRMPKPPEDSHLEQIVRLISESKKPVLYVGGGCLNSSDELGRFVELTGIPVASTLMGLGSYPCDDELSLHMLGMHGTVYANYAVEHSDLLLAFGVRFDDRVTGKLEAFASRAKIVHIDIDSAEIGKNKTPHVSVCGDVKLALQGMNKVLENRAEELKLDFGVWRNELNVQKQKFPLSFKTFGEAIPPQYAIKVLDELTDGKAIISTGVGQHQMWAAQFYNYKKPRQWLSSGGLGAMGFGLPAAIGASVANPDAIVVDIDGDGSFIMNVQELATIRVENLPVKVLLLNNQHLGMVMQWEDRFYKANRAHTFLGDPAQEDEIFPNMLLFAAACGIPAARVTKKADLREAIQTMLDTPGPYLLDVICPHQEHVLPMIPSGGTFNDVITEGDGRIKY
RECORDED METRIC: pKi
Scale for pKi: -log10 of concentration given in mol/L; no unit attached.

[[record]]
molecule = "Cc1nc(SSc2ccccc2[N+](=O)[O-])n[nH]1"
recorded_metric = "pKi"
value = 5.25

[[record]]
molecule = "COC(=O)c1ccccc1S(=O)(=O)NC(=O)Nc1nccc(C)n1 [MONOSULFURON ESTER]"
recorded_metric = "pKi"
value = 6.59


[Q] Read the entry "Cc1ccc(SSc2nc[nH]n2)cc1" and write its reported pKi.
[A] 5.33
